Sequence of the target: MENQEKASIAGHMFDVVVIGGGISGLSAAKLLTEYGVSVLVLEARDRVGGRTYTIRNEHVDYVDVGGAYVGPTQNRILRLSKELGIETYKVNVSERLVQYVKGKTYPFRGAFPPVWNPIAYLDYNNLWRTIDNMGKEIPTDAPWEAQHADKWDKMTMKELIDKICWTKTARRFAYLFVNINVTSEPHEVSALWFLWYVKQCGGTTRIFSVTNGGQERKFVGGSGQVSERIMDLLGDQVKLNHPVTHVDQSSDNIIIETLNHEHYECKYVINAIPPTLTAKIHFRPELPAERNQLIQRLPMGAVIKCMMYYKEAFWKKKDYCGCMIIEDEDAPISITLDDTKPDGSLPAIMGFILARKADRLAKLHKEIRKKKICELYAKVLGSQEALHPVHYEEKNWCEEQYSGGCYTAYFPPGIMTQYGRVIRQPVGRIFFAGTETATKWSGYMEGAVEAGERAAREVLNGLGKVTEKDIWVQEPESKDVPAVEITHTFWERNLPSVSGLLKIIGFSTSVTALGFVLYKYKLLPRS
// reported pIC50 per item
Keep in mind that pIC50 stands for -log10 of concentration in molar terms.

N#Cc1ccc(OCc2ccc(Br)cc2)cc1C#N    6.19
N#Cc1ccc(OCCc2ccc(Br)cc2)cc1    4.93
N#Cc1ccc(OC/C=C/c2ccccc2)cc1    4.80
Brc1ccc(COc2ccccc2)cc1    4.18
N#Cc1ccc(OCCc2ccc(Br)cc2)cc1C#N    5.61

(Q) Tell me the measured pIC50 of `N#Cc1ccc(OCc2ccccc2)cc1` , please.
(A) 4.49

(Q) Report pIC50 for `N#Cc1ccc(OCc2ccccc2)cc1C#N` please.
(A) 5.75

(Q) # input compound: `N#Cc1ccc(Oc2ccc(Br)cc2)cc1C#N` ; wanted: its pIC50
(A) 4.72

(Q) Need pIC50, item `N#Cc1ccc(Oc2ccc3ccccc3c2)cc1C#N`
(A) 5.30

From: BindingDB's records for doi:10.1016/j.bioorg.2011.10.003
